Listed here are sequences together with their documented apparent KD of MS2 coat protein.
Test system: MS2 coat protein
Test: apparent KD of MS2 coat protein, switch ON state; designed switch direction (-1 OFF switch, 1 ON switch): 1; higher = weaker reporter binding
Settings: FMN input: 0 or 200 uM; Eterna round: R93 (includes R88 designs)
Kindly provide the numeric value in µM only, without the unit symbol.

Look over these answered cases.
Measured apparent KD of MS2 coat protein of GAAAAACAUGAGGAUCACCCAUGUAGAAAUAUGGGAGGAUAUACGAAGACGAAAGUCGAAGUAGAAGGCCUAAAAG [Mat - Same State 1 - Eli mod - D24] : 0.027

Entry AAGAAACAUGAGGAUCACCCAUGUACCCAAAAGGGAGGAUAUGCGAAAGAAAGAAAGAAAGCAGAAGGCCCAUGAA [Artaxerxes I Longhand] ; apparent KD of MS2 coat protein = 0.0139

Value of apparent KD of MS2 coat protein reported for the sequence UGGAGACAUGAGGAUCACCCAUGUGAGAAGAGGCGAGGAUAUCGAAAGAAAGAAGAGAAACGAGAAGGCGCGAGUU [salish99-SS1-035] is 0.0272

The recorded apparent KD of MS2 coat protein for entry AAAAGACAUGAGGAUCACCCAUGUCUUCGGACAUGAGGAUAUGUACAGACUUCGGUCUGUACAGAAGGCAUAAAAA [SS1 - 1062] equals 0.0211

According to the records, this sequence AUAAGAAAAACACAGGAUAUCCAAAAGAAAACAUGAGGAUCACCCAUGUAAAGAAAAUAAAAAUGGGAGAAGGGUGAAAAUAAUA [Mat - Same State 2 - JL mod - D32] displays apparent KD of MS2 coat protein of 0.0281

Read the next record carefully.
Please fill in: apparent KD of MS2 coat protein reported for AAAUUACAUGAGGAUCACCCAUGUAACGACGUUACAGGAUAUGUGGGUGAAAAUAGCAUGACAGAAGGGUACCGUA [SameState1 Malc#38] = 0.0788
